biological target: Carbonic anhydrase 9 (Homo sapiens); assay: Inhibition of recombinant human carbonic anhydrase 9 incubated for 15 mins by phenol red based stopped-flow CO2 hydration assay
pKi: −log10 of the molar value.
Observation Type: pKi

These solved cases illustrate the format of a correct answer.
Compound	Observation Type	Measured Result
CC(CO)OC(=O)c1csc(Nc2ccc(S(N)(=O)=O)cc2)n1 (stereo unspecified)	pKi	7.42
CCOCCOC(=O)c1csc(Nc2ccc(S(N)(=O)=O)cc2)n1	pKi	7.29
NS(=O)(=O)c1ccc(Nc2nc(C(=O)OCCCCc3ccccc3)cs2)cc1	pKi	7.06

A. CCCCCCCCOC(=O)c1csc(Nc2ccc(S(N)(=O)=O)cc2)n1
B. NS(=O)(=O)c1ccc(Nc2nc(C(=O)OCCO)cs2)cc1
Challenge: When the recorded pKi values are compared, which is smaller: that of A or that of B ? Label of pick, please.
Response given: A
(A: 7.10, B: 7.36)

Source: ChEMBL document CHEMBL5131458
